Taken from patent US20230272056A1.

# tested_system: T1, human LAP-TGFB1 Fc fusion (human)
# T1 construct: also called human LAP-TGFβ1-Fc; human LAP-TGFβ-Fc isoform 1
# T1 sequence (chain, as listed by the source limits assumed): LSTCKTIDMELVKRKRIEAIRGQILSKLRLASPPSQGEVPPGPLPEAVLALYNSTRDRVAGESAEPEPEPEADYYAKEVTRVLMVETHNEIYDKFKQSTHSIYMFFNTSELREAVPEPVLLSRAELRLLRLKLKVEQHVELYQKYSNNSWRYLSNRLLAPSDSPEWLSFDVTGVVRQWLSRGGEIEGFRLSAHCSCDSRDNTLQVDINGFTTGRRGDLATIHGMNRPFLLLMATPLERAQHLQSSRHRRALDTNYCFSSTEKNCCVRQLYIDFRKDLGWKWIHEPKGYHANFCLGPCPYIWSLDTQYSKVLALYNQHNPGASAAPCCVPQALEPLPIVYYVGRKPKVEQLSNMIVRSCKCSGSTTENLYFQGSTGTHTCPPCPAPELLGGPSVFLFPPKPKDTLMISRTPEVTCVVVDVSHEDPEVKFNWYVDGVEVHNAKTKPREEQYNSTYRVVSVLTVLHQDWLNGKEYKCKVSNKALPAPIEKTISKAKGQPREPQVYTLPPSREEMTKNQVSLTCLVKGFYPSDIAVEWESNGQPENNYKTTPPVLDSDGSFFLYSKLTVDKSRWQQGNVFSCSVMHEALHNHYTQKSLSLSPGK
# protocol: SPR pH 6.0, antigen captured on Fab 54BLH
outcome_measure: kon (M⁻¹ s⁻¹)
Expressed in M⁻¹ s⁻¹, but write only the number.

Answered examples (4):
15BLM (antibody, human IgG1, kappa, L234A L235A, V domains shown, IgG1 L234A L235A D265S/kappa; also called 78BLH; 51BMD) VH: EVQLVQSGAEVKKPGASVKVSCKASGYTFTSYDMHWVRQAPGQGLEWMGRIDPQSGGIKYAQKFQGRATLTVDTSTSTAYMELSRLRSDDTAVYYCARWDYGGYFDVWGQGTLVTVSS VL: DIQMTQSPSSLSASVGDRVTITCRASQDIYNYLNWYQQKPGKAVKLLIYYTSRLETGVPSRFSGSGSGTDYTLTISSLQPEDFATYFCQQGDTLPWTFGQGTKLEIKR: 1.21e+07
16BLM (antibody, human IgG1, kappa, L234A L235A, V domains shown, IgG1 L234A L235A D265S/kappa; also called 79BLH; 52BMD) VH: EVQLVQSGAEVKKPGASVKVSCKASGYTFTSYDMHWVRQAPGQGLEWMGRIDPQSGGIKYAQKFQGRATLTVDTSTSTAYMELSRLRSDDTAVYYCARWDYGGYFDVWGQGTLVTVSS VL: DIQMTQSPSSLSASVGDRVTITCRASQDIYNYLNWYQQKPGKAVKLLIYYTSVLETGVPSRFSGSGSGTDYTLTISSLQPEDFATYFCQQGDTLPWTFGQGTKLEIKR: 1.12e+07
54BLH (Fab, V domains shown, also called 06BLM Fab) VH: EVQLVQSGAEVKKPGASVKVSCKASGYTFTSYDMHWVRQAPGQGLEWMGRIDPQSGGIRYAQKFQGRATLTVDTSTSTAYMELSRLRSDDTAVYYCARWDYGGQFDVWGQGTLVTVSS VL: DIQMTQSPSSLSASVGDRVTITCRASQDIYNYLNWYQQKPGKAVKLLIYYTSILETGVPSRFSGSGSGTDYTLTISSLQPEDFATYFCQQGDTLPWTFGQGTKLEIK: 4.65e+06
55BLH (Fab, V domains shown, also called 07BLM Fab) VH: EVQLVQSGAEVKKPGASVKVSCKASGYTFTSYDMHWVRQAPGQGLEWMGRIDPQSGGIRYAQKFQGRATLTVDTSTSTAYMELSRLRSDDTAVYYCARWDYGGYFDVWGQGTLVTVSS VL: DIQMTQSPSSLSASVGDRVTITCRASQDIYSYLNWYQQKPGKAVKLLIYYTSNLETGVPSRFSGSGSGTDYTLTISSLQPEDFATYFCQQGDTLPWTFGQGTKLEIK: 7.39e+06

Let us move to another entry and its kon.
Query: Quick one: kon of 06BLM (antibody, human IgG1, L234A L235A, V domains shown, IgG1 L234A L235A D265S/kappa; also called 69BLH; 42BMD) VH: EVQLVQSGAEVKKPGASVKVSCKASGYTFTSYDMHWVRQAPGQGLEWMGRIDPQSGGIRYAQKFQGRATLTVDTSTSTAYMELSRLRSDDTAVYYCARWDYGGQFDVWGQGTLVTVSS VL: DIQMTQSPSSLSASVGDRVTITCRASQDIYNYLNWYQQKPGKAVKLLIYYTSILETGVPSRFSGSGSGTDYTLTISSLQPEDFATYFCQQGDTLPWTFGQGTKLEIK ?
Response: 5.43e+06
